Data credit: ChEMBL document CHEMBL1141699

Form field: MIC (one value per entry).
Tested on: Moraxella catarrhalis
Assay: Antibacterial activity against Moraxella catarrhalis by broth-microdilution method
Type: functional
Property label: MIC

Molecule: CC[C@H]1OC(=O)[C@H](C)[C@@H](O[C@H]2C[C@@](C)(OC)[C@@H](O)[C@H](C)O2)[C@H](C)[C@@H](O[C@@H]2O[C@H](C)C[C@H](N(C)C)[C@H]2O)[C@](C)(O)C[C@@H](C)C(=O)[C@H](C)[C@@H](O)[C@]1(C)O [ERYTHROMYCIN]
Value measured: 0.13 µg/mL

Molecule: CC[C@H]1OC(=O)[C@H](C)[C@H]2OC/C(=N\OCCc3ccccc3)CCO[C@](C)(C[C@@H](C)C(=O)[C@H](C)[C@H]3NC(=O)O[C@@]31C)[C@H](O[C@@H]1O[C@H](C)C[C@H](N(C)C)[C@H]1O)[C@H]2C
Value measured: ≤ 0.06 µg/mL

Molecule: CC[C@H]1OC(=O)[C@H](C)[C@H]2OC/C(=N\Oc3ccccc3)CCO[C@](C)(C[C@@H](C)C(=O)[C@H](C)[C@H]3NC(=O)O[C@@]31C)[C@H](O[C@@H]1O[C@H](C)C[C@H](N(C)C)[C@H]1O)[C@H]2C
Value measured: ≤ 0.06 µg/mL

Molecule: CC[C@H]1OC(=O)[C@H](C)[C@H]2OC/C(=N\Oc3cccc(Cl)c3)CCO[C@](C)(C[C@@H](C)C(=O)[C@H](C)[C@H]3NC(=O)O[C@@]31C)[C@H](O[C@@H]1O[C@H](C)C[C@H](N(C)C)[C@H]1O)[C@H]2C
Value measured: ≤ 0.06 µg/mL
